test system: SK-MEL-5 cells; test: Cell survival assay (SRB); type: cell-based, human; settings: Homo sapiens, SK-MEL-5; read-out: Cytoselectivities (nM) SK-MEL-5
quantity name: IC50 (nM)
One number for each entry, in nM.

Examples from the recorded data:
• O=C(CCCCC[C@H](NC(=O)OCc1ccccc1)C(=O)Nc1cccc2cccnc12)NO [Example 148] = 70
• O=C(CCCCC[C@H](NC(=O)c1cc2ccccc2[nH]1)C(=O)Nc1cccc2cccnc12)NO [Example 132] = 18

// input: 4 compounds below; output: IC50 for each
1. CC(C)COC(=O)N[C@@H](CCCCCC(=O)NO)C(=O)Nc1cccc2cccnc12 [Example 149]
2. CN(C)c1ccc(C(=O)N[C@@H](CCCCCC(=O)NO)C(=O)Nc2cccc3cccnc23)cc1 [Example 126]
3. O=C(CCCCC[C@H](NC(=O)c1ccc(Br)cc1)C(=O)Nc1ccc(-c2ccccc2)cc1)NO [Example 161]
4. O=C(/C=C/c1ccccc1)N[C@@H](CCCCCC(=O)NO)C(=O)Nc1cccc2cccnc12 [Example 146]

Result:
100
32
102
29

----------
tested on: NFF, neonatal foreskin fibroblasts; assay: Cell survival assay (clonogenic survival, SRB), normal cells; assay type: cell-based, human; details: Homo sapiens, Fibroblast, 24 h, Table 7; 24 hours with compound, further growth, SRB; read-out: IC50 (μM) NFF
Mark Condition met only for IC50 values smaller than 4 µM; exact matches and larger values are Condition not met.

Worked examples follow.
- O=C(/C=C/c1ccccc1)N[C@@H](CSCCCC(=O)NO)C(=O)Nc1ccncc1: Condition met
- O=C(/C=C/c1ccccc1)N[C@@H](CSCCCC(=O)NO)C(=O)Nc1cccnc1: Condition not met
- O=C(/C=C/c1ccccc1)N[C@@H](CSCCCC(=O)NO)C(=O)NCc1ccncc1: Condition met
- O=C(/C=C/c1ccccc1)N[C@@H](CSCCCC(=O)NO)C(=O)NCc1cccnc1: Condition not met

Then this compound:
Task: Bench note: check whether O=C(/C=C/c1ccccc1)N[C@@H](CSCCCC(=O)NO)C(=O)NCc1ccccn1 shows IC50 below 4 µM
Result: Condition not met

----------
system: MM96L melanoma cells; assay: Cell survival assay (clonogenic survival, SRB); type: cell-based, human; conditions: Table 5; Selectivity Index = IC50 (NFF)/IC50 (MM96L)
quantity name: Selectivity

• O=C(CCCSC[C@H](NC(=O)C1CCCC1)C(=O)NCc1ccccc1)NO = >5
• O=C(CCCSC[C@H](NC(=O)CCCc1ccccc1)C(=O)NCc1ccccc1)NO = 2.2
• C/C=C/C(=O)N[C@@H](CSCCCC(=O)NO)C(=O)NCc1ccccc1 = >9
• O=C(CCCSC[C@H](NC(=O)C(O)(c1ccccc1)c1ccccc1)C(=O)NCc1ccccc1)NO = 5.2
• O=C(CCCSC[C@H](NC(=O)c1cc2ccccc2cc1O)C(=O)NCc1ccccc1)NO = >8

// input: 2 compounds below; output: Selectivity for each
1. O=C(CCCSC[C@H](NC(=O)c1cccnc1)C(=O)NCc1ccccc1)NO
2. O=C(CCCSC[C@H](NS(=O)(=O)c1ccccc1)C(=O)NCc1ccccc1)NO

Result:
1: >8; 2: >1

Task: Report measured Selectivity; entry is O=C(CCCSC[C@H](NC(=O)c1cccs1)C(=O)NCc1ccccc1)NO
Result: 3.6

----------
test system: MM604 melanoma cells; assay: Cell survival assay (SRB); type: cell-based, human; conditions: Homo sapiens; Table 11, antiproliferative potency
quantity name: IC50 (µM)
Give bare numbers, in µM.

Task: Report measured IC50; entry is CN(C)c1ccc(C(=O)N[C@@H](CCCCCC(=O)NO)C(=O)NCc2ccccc2)cc1 (racemic)
Result: 0.01

----------
system: DO4 melanoma cells; assay: Cell survival assay (SRB); format: cell-based, human; details: Homo sapiens, DO4; Table 10; standard deviations in parentheses; read-out: Cell line IC50 (μM) DO4
quantity name: IC50 (µM)
Numbers only, in µM.

Examples from the recorded data:
- CN(C)c1ccc(NC(=O)[C@H](CSCCCC(=O)NO)NC(=O)c2ccc(N(C)C)cc2)cc1 [Example 59]: 1.05
- CN(C)c1ccc(C(=O)N[C@@H](CSCCCC(=O)NO)C(=O)Nc2ccc(-c3ccccc3)cc2)cc1 [Example 61]: 0.83
- CN(C)c1ccc(C(=O)N[C@@H](CSCCCC(=O)NO)C(=O)NC2CCCc3ccccc32)cc1 (stereo partly shown) [Example 67]: 2.73

Let us move to another entry and its IC50.
Task: Report measured IC50; entry is CN(C)c1ccc(C(=O)N[C@@H](CSCCCC(=O)NO)C(=O)Nc2cccnc2)cc1 [Example 78]
Result: 2.48

----------
Field: IC50. Provide a value for each of the compounds that follow.
Tested on: HOP62 cells
Experiment: Cell survival assay (SRB)
Format: cell-based, human
Details: Homo sapiens, HOP-62; HOP62 (lung); read-out: Cytoselectivities (nM) HOP62
From the text: Cell Lines and Culture Medium. All cell lines used in this study have been described previously (Parsons et al., 1986; Todaro et al., 1980; Glenn et al., 2004). […] Cell Survival Assay. […] Plates were then read at 564 nm on a VERSA max tunable microplate reader (Molecular Devices, Sunnyvale, Calif.).
Answers are plain numbers, in nM.

Examples from the recorded data:
- O=C(CCCCC[C@H](NC(=O)c1cc2ccccc2[nH]1)C(=O)Nc1cccc2cccnc12)NO: 63
- CC(C)COC(=O)N[C@@H](CCCCCC(=O)NO)C(=O)Nc1cccc2cccnc12: 267
- O=C(/C=C/c1ccccc1)N[C@@H](CCCCCC(=O)NO)C(=O)Nc1cccc2cccnc12: 65
- O=C(CCCCC[C@H](NC(=O)c1ccc(Br)cc1)C(=O)Nc1ccc(-c2ccccc2)cc1)NO: 261
- CN(C)c1ccc(C(=O)N[C@@H](CCCCCC(=O)NO)C(=O)Nc2cccc3cccnc23)cc1: 137

Let us move to another entry and its IC50.
Task: Report measured IC50; entry is O=C(CCCCC[C@H](NC(=O)OCc1ccccc1)C(=O)Nc1cccc2cccnc12)NO
Result: 226

----------
system: MM96L melanoma cells; test: Cell survival assay (clonogenic survival, SRB); format: cell-based, human; details: Table 5; Selectivity Index = IC50 (NFF)/IC50 (MM96L)
quantity name: Selectivity

Examples from the recorded data:
- O=C(CCCSC[C@H](NC(=O)CCc1ccccc1)C(=O)NCc1ccccc1)NO [Example 46]: 2.9
- O=C(CCCSC[C@H](NC(=O)C1CCC(=O)N1)C(=O)NCc1ccccc1)NO (stereo partly shown) [Example 56]: 2.2
- O=C(CCCSC[C@H](NC(=O)c1cccc2ccccc12)C(=O)NCc1ccccc1)NO [Example 37]: 0.8

Let us move to another entry and its Selectivity.
Task: Report measured Selectivity; entry is CN(C)c1ccc(C(=O)N[C@@H](CSCCCC(=O)NO)C(=O)NCc2ccccc2)cc1 [Example 22]
Result: 2.5

----------
system: DO4 melanoma cells; experiment: Cell survival assay (SRB); format: cell-based, human; conditions: Table 10; standard deviations in parentheses; read-out: Cell line IC50 (μM) DO4
Mark rule met only for IC50 values smaller than 2 µM; exact matches and larger values are rule not met.

Worked examples follow.
• O=C(CCCSC[C@H](NC(=O)c1cc2ccccc2[nH]1)C(=O)NCc1ccccc1)NO [Example 40] = rule met
• O=C(CCCSC[C@H](NC(=O)c1ccc(Br)cc1)C(=O)NCc1ccccc1)NO [Example 24] = rule not met
• O=C(CCCSC[C@H](NC(=O)C(O)(c1ccccc1)c1ccccc1)C(=O)NCc1ccccc1)NO [Example 44] = rule not met

Task: Bench note: check whether CN(C)c1ccc(C(=O)N[C@@H](CSCCCC(=O)NO)C(=O)N[C@H]2c3ccccc3C[C@H]2O)cc1 [Example 70] shows IC50 below 2 µM
Result: rule not met

----------
System: MM96L melanoma cells
Assay: Cell survival assay (clonogenic survival, SRB)
Format: cell-based, human
Conditions: Table 5; Selectivity Index = IC50 (NFF)/IC50 (MM96L)
Experimental: The cytotoxicities of the compounds of the invention were determined by clonogenic survival of human cancer cells (MM96L, melanoma) and human normal cells (NFF, neonatal foreskin fibroblasts). […] The final readout involved staining with sulforhodamine B (SRB), a cost-effective method amenable to automation and high throughput analysis. […] Cell Survival Assay. […] Plates were then read at 564 nm on a VERSA max tunable microplate reader (Molecular Devices, Sunnyvale, Calif.).
quantity name: Selectivity
Numbers only.

- O=C(CCCSC[C@H](NC(=O)C(c1ccccc1)c1ccccc1)C(=O)NCc1ccccc1)NO: 2.4

// input: 7 molecules below; output: Selectivity for each
1. Cc1cc(C)cc(C(=O)N[C@@H](CSCCCC(=O)NO)C(=O)NCc2ccccc2)c1
2. O=C(CCCSC[C@H](NC(=O)c1cnccn1)C(=O)NCc1ccccc1)NO
3. COc1ccc(CCC(=O)N[C@@H](CSCCCC(=O)NO)C(=O)NCc2ccccc2)cc1
4. O=C(CCCSC[C@H](NC(=O)Cc1cccc2ccccc12)C(=O)NCc1ccccc1)NO
5. COc1cc(OC)cc(C(=O)N[C@@H](CSCCCC(=O)NO)C(=O)NCc2ccccc2)c1
6. O=C(/C=C/c1ccccc1)N[C@@H](CSCCCC(=O)NO)C(=O)NCc1ccccc1
7. O=C(CCCSC[C@H](NC(=O)c1ccccc1C(=O)c1ccccc1)C(=O)NCc1ccccc1)NO

Result:
[5.5, 3.3, 2.0, 3.7, 2.6, 4.0, 1.3]

// input: 2 molecules below; output: Selectivity for each
1. CC(C)=CC(=O)N[C@@H](CSCCCC(=O)NO)C(=O)NCc1ccccc1
2. CC(C)CCC(=O)N[C@@H](CSCCCC(=O)NO)C(=O)NCc1ccccc1

Result:
1: 2.0; 2: 3.6
